TARGET ENTITY: Solute carrier organic anion transporter family member 1B1 (Homo sapiens, UniProt Q9Y6L6)
Sequence (Q9Y6L6 whole entry): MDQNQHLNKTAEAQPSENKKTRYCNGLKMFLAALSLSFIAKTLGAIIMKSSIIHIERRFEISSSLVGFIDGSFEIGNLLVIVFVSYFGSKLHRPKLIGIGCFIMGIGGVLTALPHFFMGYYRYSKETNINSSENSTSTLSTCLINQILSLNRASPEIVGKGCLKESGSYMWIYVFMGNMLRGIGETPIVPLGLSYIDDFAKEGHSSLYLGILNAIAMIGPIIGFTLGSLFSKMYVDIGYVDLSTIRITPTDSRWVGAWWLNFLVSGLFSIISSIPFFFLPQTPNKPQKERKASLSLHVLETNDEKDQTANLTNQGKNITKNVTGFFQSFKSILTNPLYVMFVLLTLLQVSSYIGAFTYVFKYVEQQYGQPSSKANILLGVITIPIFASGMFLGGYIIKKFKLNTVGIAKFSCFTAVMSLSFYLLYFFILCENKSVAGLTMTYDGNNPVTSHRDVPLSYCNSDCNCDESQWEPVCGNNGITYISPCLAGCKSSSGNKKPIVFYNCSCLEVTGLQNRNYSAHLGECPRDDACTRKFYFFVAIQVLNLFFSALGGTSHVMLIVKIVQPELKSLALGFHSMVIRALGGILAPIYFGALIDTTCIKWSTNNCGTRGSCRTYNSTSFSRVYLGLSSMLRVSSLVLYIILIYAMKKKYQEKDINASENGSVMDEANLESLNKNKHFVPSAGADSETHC
STATED CONDITIONS: chinese hamster, cho, 10 µM
OBSERVATION TYPE: residual activity (%)
Provide the reading as a plain figure in %.

Reference set, count: 3
[
  {
    "MOLECULE": "CCCCCCCCNC(C)C(O)c1ccc(SC(C)C)cc1 (centres undefined)",
    "TARGET ENTITY": "Solute carrier organic anion transporter family member 1B1 (Homo sapiens, UniProt Q9Y6L6)",
    "DISPLAY UNIT": "%",
    "READING": 143.8
  },
  {
    "MOLECULE": "COc1cc2c(cc1OC)[C@H](C)NCC2",
    "TARGET ENTITY": "Solute carrier organic anion transporter family member 1B1 (Homo sapiens, UniProt Q9Y6L6)",
    "DISPLAY UNIT": "%",
    "READING": 117.3
  },
  {
    "MOLECULE": "COC1=C[C@@H]2[C@@H]3Cc4ccc(OC)c(O)c4[C@]2(CCN3C)CC1=O",
    "TARGET ENTITY": "Solute carrier organic anion transporter family member 1B1 (Homo sapiens, UniProt Q9Y6L6)",
    "DISPLAY UNIT": "%",
    "READING": 105.5
  }
]

For record C[N+]12CCC(CC1)C(OC(=O)C(O)(c1ccccc1)c1ccccc1)C2.[Br-] (centres undefined) [CLIDINIUM BROMIDE] the listed residual activity is 125.2

For record `c1ccc2c3c([nH]c2c1)CNCC3` the listed residual activity is 99.4

For record NC(=O)c1ccc[n+]([C@@H]2O[C@H](COP(=O)([O-])OP(=O)(O)OC[C@H]3O[C@@H](n4cnc5c(N)ncnc54)[C@H](O)[C@@H]3O)[C@@H](O)[C@H]2O)c1 [NADIDE] the listed residual activity is 99.44

For record NCC(CC(=O)O)c1ccc(Cl)s1 (centres undefined) the listed residual activity is 116.9

For record `CC(=O)O[C@H]1C[C@@H](OC(C)=O)C(C)(C)[C@@H]2C[C@@H](O)[C@@]3(C)[C@H](CC[C@]4(C)[C@@H](c5ccoc5)OC(=O)[C@H]5O[C@@]534)[C@@]12C` the listed residual activity is 14.28

For record `CC[C@H]1OC(=O)[C@H](C)[C@@H](O[C@H]2C[C@@](C)(OC)[C@@H](O)[C@H](C)O2)[C@H](C)[C@@H](O[C@@H]2O[C@H](C)C[C@H](N(C)C)[C@H]2O)[C@](C)(OC)C[C@@H](C)C(=O)[C@H](C)[C@@H](O)[C@]1(C)O` the listed residual activity is 56.72
